Reference source: patent US6239125A

- measured_on: HCMV No protease (Human cytomegalovirus)
- Sequence (P16753 1-256): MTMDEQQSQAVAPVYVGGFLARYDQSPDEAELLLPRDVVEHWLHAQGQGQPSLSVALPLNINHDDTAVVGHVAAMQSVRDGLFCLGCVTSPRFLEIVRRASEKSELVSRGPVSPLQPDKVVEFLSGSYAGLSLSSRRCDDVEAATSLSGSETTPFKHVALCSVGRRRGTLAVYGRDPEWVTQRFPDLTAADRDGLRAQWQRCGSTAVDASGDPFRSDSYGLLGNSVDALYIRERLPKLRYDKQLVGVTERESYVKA
pIC50: −log10 of the molar value.
Consider the reported pIC50 of an entry and match it to a band in low end (below 5), middle (5 to below 6), high end (6 or more)

Recorded results for 5 molecules are shown here.
O=C1C[C@H](SCc2ccccn2)N1C(=O)N[C@H](CO)c1ccccc1 [Entry 116]    middle
CC(C)C[C@@H](CO[C@@H]1CC(=O)N1C(=O)NCc1ccccc1)NC(=O)OC(C)(C)C [Entry 201]    low end
CN(C(=O)CC(CO[C@@H]1CC(=O)N1C(=O)NCc1ccccc1)NC(=O)CC(C)(C)C)C(C)(C)C (stereo partly shown) [Entry 205]    middle
C[C@@H](NC(=O)N1C(=O)C[C@@H]1SCCc1ccccc1)c1ccccc1 [Entry 104]    middle
C[C@@H](NC(=O)N1C(=O)C[C@@H]1SCc1ccccn1)c1ccccc1 [Entry 111]    middle

Hey, which category is C[C@@H](NC(=O)N1C(=O)C[C@@H]1SCc1cccnc1)c1ccccc1 [Entry 110] in, do you know?
middle

Hey, which category is C[C@@H](NC(=O)N1C(=O)C[C@@H]1SCc1ccncc1)c1ccccc1 [Entry 109] in, do you know?
middle

Hey, which category is C[C@@H](NC(=O)N1C(=O)C[C@H]1SC[C@H](CCS(C)(=O)=O)NC(=O)[C@@H](NC(=O)OC(C)(C)C)C(C)(C)C)c1ccccc1 [Entry 106] in, do you know?
high end

Hey, which category is CC[C@@H](NC(=O)N1C(=O)C[C@@H]1SC[C@H](CC(C)C)NC(=O)[C@@H](NC(=O)CC(C)(C)C)C(C)(C)C)c1ccccc1 [Entry 115] in, do you know?
high end

Hey, which category is C[C@@H](NC(=O)N1C(=O)C[C@@H]1SC[C@H](CCS(C)(=O)=O)NC(=O)[C@@H](NC(=O)OC(C)(C)C)C(C)(C)C)c1ccccc1 [Entry 105] in, do you know?
high end

Hey, which category is C[C@@H](NC(=O)N1C(=O)C[C@@H]1OCCNC(=O)c1ccc(NC(=O)CC(C)(C)C)cc1)c1ccccc1 [Entry 208] in, do you know?
low end

Hey, which category is CC(C)C[C@@H](CO[C@@H]1CC(=O)N1C(=O)NCc1ccccc1)NC(=O)[C@@H](NC(=O)CC(C)(C)C)C(C)(C)C [Entry 204] in, do you know?
high end

====

- Tested on: HCMV (strain AD169, ATCC VR-538)
- assay_text: Plaque Reduction Assay (PRA), HCMV-infected Hs-68 cells
- Assay type: cell-based, human cytomegalovirus (HCMV)
- condition_description: Human betaherpesvirus 5, Hs68; plaque reduction, Hs-68 cells, HCMV strain AD169; Table 1 and Table 2; read-out: EC50
Where a name gives a salt, the structure may show the parent alone.
endpoint_label: EC50 (µM)
API: value field is a number in µM; no unit string.

C[C@@H](NC(=O)N1C(=O)C[C@@H]1SC[C@H](CCS(C)(=O)=O)NC(=O)[C@@H](NC(=O)OC(C)(C)C)C(C)(C)C)c1ccccc1    110
C[C@@H](NC(=O)N1C(=O)C[C@@H]1Oc1ccc(Cl)cc1)c1ccccc1    250
CC[C@@H](NC(=O)N1C(=O)C[C@@H]1SCc1ccccn1)c1ccccc1 [Entry 114, hydrochloride]    80
C[C@@H](NC(=O)N1C(=O)C[C@@H]1SCc1cccnc1)c1ccccc1    96
C[C@@H](NC(=O)N1C(=O)C[C@@H]1SCc1ccncc1)c1ccccc1    65

// EC50 (HCMV (strain AD169, ATCC VR-538)) for C[C@@H](NC(=O)N1C(=O)C[C@H]1SC[C@H](CCS(C)(=O)=O)NC(=O)[C@@H](NC(=O)OC(C)(C)C)C(C)(C)C)c1ccccc1 = 230
